Test system: Saccharomyces cerevisiae
Assay: protein stability index of tFT-peptide fusion (C-terminal peptide) (PSI (0-1 scale)); higher = more stable (slower turnover);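 further: PSI is a weighted mean of sequencing reads over stability bins, variants kept only with over 10 reads, mCherry proximal and sfGFP distal, peptide attached via GGGS linker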
Conditions: genetic background: cdc53-1; temperature: 37 C
Parameter class (string): assigned from measured protein stability index. Ranges: LOW (below 0.4), MEDIUM (0.4 to below 0.6), HIGH (0.6 or more)

{"columns": ["sequence.record", "classification"],
 "data": [
  ["IIAVFRCCLRVY", "LOW"],
  ["CLYATQFWGRYG", "HIGH"],
  ["LVCSLLVPSSFF", "HIGH"],
  ["SSVCVLVSCVLG", "MEDIUM"],
  ["SSAFFFLLFSLA", "MEDIUM"]
]}

Input line: Which category does the recorded protein stability index put GRLRLGVLCGGV in?
Output line: HIGH

Input line: Which category does the recorded protein stability index put FFGVFIFPVSCR in?
Output line: LOW

Input line: Which category does the recorded protein stability index put VYVYTIRVRWSE in?
Output line: LOW

Input line: Which category does the recorded protein stability index put RLWLPLSLVLWV in?
Output line: LOW

* * *

Tested on: Saccharomyces cerevisiae
Assay: protein stability index of tFT-peptide fusion (C-terminal peptide) (PSI (0-1 scale)); higher = more stable (slower turnover)
Conditions: genetic background: wild type; temperature: 30 C
measurement.type: protein stability index
Just the number, please.

# protein stability index (sequence: KKQRKRTKRKRK ) is 0.693

# protein stability index (sequence: GGVGGRGREWRR ) is 0.7

# protein stability index (sequence: SGSWRFYPSTTC ) is 0.706

# protein stability index (sequence: PPFPPLPSPFTS ) is 0.708

# protein stability index (sequence: ACVRVVRLGCGW ) is 0.616

# protein stability index (sequence: PPPPPPRPLAPS ) is 0.679

* * *

System: Saccharomyces cerevisiae
Assay: protein stability index of tFT-peptide fusion (C-terminal peptide) (PSI (0-1 scale)); higher = more stable (slower turnover)
Conditions: genetic background: wild type; temperature: 30 C
Parameter class (string): assigned from measured protein stability index. Ranges: b0: < 0.6; b1: ≥ 0.6 and < 0.7; b2: ≥ 0.7

Answered cases to consult:
{"columns": ["sequence.record", "classification"],
 "data": [
  ["IFRLVRVVRSSS", "b0"],
  ["LFLTPTSPVAAL", "b1"]
]}

Input line: Which category does the recorded protein stability index put PPPRPPLALSPP in?
Output line: b1

Input line: Which category does the recorded protein stability index put VITCGLVLRSVR in?
Output line: b1

Input line: Which category does the recorded protein stability index put AQHTGFMRELRR in?
Output line: b2

Input line: Which category does the recorded protein stability index put NFFGPAIFLRRR in?
Output line: b1

Input line: Which category does the recorded protein stability index put SMCSVAGVWWLG in?
Output line: b2

Input line: Which category does the recorded protein stability index put LGCLRLVPSPPG in?
Output line: b2

Input line: Which category does the recorded protein stability index put GVVGTVEGGATG in?
Output line: b1

Input line: Which category does the recorded protein stability index put LPCPRPVPPSPA in?
Output line: b1

Input line: Which category does the recorded protein stability index put YRFVWRWIPICA in?
Output line: b0

Input line: Which category does the recorded protein stability index put GVEGCKRAGKLR in?
Output line: b1
